# Activity per entry
# Tested on: Oryza sativa
# TEST_METHOD_NOTES: Effect on Oryza sativa (rice) assessed as growth rate at 1 uM relative to control
# Type: organism-based
# CONDITION_NOTES: in vivo
Record the value in %, omitting the unit from your answer.

As a guide, the following entries are already answered.
Activity in this record for CC(=O)c1ccccc1NC(=O)N[C@H](C)c1ccccc1 : 95

Activity in this record for C[C@@H](NC(=O)Nc1cccc(F)c1)c1ccccc1 : 95

Activity in this record for CC(C)c1ccccc1NC(=O)N[C@H](C)c1ccccc1 : 101

Now for the compound whose Activity we want.
Activity in this record for C[C@@H](NC(=O)Nc1ccccc1C(C)(C)C)c1ccccc1 : 95

###

# Test system: Oryza sativa
# TEST_METHOD_NOTES: Relieving activity against bensulfuron-methyl induced injury to Oryza sativa (rice) assessed as growth rate at 1 uM (Rbv = 46 to 53%)
# Assay type: functional
Assign 1.0 to entries whose Activity meets or exceeds 70%; assign 0.0 to the rest.

Sample answers from the record:
## Task Check this compound for Activity at or above 70%: C[C@@H](NC(=O)Nc1c(Cl)cccc1Cl)c1ccccc1
## Result 0.0

## Task Check this compound for Activity at or above 70%: Cc1ccc(NC(=O)N[C@H](C)c2ccccc2)c(F)c1
## Result 1.0

## Task Check this compound for Activity at or above 70%: COc1ccc(NC(=O)N[C@@H](C)c2ccccc2)cc1
## Result 1.0

## Task Check this compound for Activity at or above 70%: C[C@@H](NC(=O)Nc1cccc(Br)c1)c1ccccc1
## Result 1.0

## Task Check this compound for Activity at or above 70%: CCc1cccc(CC)c1NC(=O)N[C@H](C)c1ccccc1
## Result 0.0

## Task Check this compound for Activity at or above 70%: C[C@@H](NC(=O)Nc1c(F)cccc1F)c1ccccc1
## Result 0.0

## Task Check this compound for Activity at or above 70%: C[C@H](NC(=O)Nc1cc(Cl)cc(Cl)c1)c1ccccc1
## Result 1.0

## Task Check this compound for Activity at or above 70%: CCc1ccccc1NC(=O)N[C@H](C)c1ccccc1
## Result 0.0

Further cases:
## Task Check this compound for Activity at or above 70%: C[C@H](NC(=O)Nc1ccccc1)c1ccccc1
## Result 1.0

## Task Check this compound for Activity at or above 70%: C[C@H](NC(=O)Nc1cccc(C(F)(F)F)c1F)c1ccccc1
## Result 1.0

###

# Test system: Oryza sativa
# TEST_METHOD_NOTES: Effect on Oryza sativa (rice) assessed as growth rate at 0.1 uM relative to control
# Type: organism-based
# CONDITION_NOTES: in vivo
# Activity per entry
Record the value in %, omitting the unit from your answer.

Activity in this record for C[C@@H](NC(=O)Nc1cccc(Cl)c1)c1ccccc1 : 97

Activity in this record for C[C@H](NC(=O)Nc1ccccc1C(C)(C)C)c1ccccc1 : 101

Activity in this record for COc1ccccc1NC(=O)N[C@@H](C)c1ccccc1 : 98

Activity in this record for CCc1cccc(CC)c1NC(=O)N[C@@H](C)c1ccccc1 : 101

Activity in this record for C[C@H](NC(=O)Nc1c(F)cccc1F)c1ccccc1 : 100

Further cases:
Activity in this record for C[C@H](NC(=O)Nc1c(Cl)cccc1Cl)c1ccccc1 : 100

Activity in this record for C[C@H](NC(=O)Nc1cccc(Cl)c1)c1ccccc1 : 103

Activity in this record for COc1ccc(NC(=O)N[C@H](C)c2ccccc2)cc1 : 109

Activity in this record for C[C@H](NC(=O)Nc1ccccc1)c1ccccc1 : 101

Activity in this record for C[C@@H](NC(=O)Nc1ccc(Cl)c(Cl)c1)c1ccccc1 : 98

Activity in this record for C[C@@H](NC(=O)Nc1ccccc1Cl)c1ccccc1 : 101

Activity in this record for CCCc1ccc(NC(=O)N[C@H](C)c2ccccc2)cc1 : 33

Activity in this record for C[C@@H](NC(=O)Nc1ccccc1I)c1ccccc1 : 100

Activity in this record for C[C@@H](NC(=O)Nc1c(F)cccc1F)c1ccccc1 : 100

Activity in this record for C[C@H](NC(=O)Nc1ccccc1Cl)c1ccccc1 : 99

Activity in this record for Cc1cc(F)ccc1NC(=O)N[C@@H](C)c1ccccc1 : 99

The reported measurements were obtained from ChEMBL document CHEMBL3045406.
